Molecular target: Ras GEF SOS (Son of Sevenless) (Homo sapiens, UniProt Q07889)
Sequence (Q07889 564-1049 limits assumed): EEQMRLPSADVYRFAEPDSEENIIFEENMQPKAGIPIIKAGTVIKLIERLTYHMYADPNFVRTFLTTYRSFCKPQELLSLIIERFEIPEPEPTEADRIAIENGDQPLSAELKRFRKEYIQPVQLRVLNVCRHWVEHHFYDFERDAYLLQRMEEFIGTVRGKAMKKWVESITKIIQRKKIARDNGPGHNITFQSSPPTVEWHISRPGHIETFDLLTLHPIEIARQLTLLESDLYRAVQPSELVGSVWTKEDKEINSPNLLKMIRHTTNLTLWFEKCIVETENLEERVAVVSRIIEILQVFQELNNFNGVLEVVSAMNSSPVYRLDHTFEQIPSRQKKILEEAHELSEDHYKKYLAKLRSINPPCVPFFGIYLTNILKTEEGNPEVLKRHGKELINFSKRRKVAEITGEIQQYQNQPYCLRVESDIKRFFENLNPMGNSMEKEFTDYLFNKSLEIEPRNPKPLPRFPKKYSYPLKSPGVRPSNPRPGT
Sequence (P01112 1-166 partner limits assumed): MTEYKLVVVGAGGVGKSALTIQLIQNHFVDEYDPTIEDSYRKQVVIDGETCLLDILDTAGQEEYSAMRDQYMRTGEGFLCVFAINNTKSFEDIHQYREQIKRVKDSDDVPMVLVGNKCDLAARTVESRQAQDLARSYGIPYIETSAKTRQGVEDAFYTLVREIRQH
Assay: SOS-mediated nucleotide exchange on Ras (BODIPY-GDP fluorescence)
Conditions: SOS-mediated exchange of BODIPY-GDP for GTP on Ras
pEC50: −log10 of the molar value. Structures can show the parent of a compound that is named as a salt.
measured_parameter: pEC50

Some molecules with recorded pEC50:
[[record]]
molecule = "Cc1cc(Cn2c(NC3CCNC3)nc3c(-c4ccccc4)nccc32)ccc1F (centres unmarked) [Example 222]"
result = "4.52 to 5.30"

[[record]]
molecule = "COc1ccccc1-c1nc(C)cc2c1nc(N1CCNCC1)n2Cc1ccc(F)c(C)c1 [Example 228]"
result = "4.52 to 5.30"

[[record]]
molecule = "Cc1cc2c(nc(NCCN)n2Cc2cccc(C#N)c2)c(-c2ccccc2Cl)c1C [Example 117, trifluoroacetate]"
result = "5.30 to 6.00"

[[record]]
molecule = "Cc1cc(Cn2c(N3CCNCC3)nc3c(OC4CCN(C)CC4)cccc32)ccc1F [Example 205]"
result = "> 6.00"

[[record]]
molecule = "Cc1cc(N2CCN(C)CC2)c2nc(N3CCNCC3)n(Cc3cc(C)c(F)c(C)c3)c2c1 [Example 322]"
result = "> 6.00"

[[record]]
molecule = "Cc1cc(OCCN2CCCC2)c2nc(N3CCNCC3)n(Cc3cc(C)c(F)c(C)c3)c2c1 [Example 316]"
result = "> 6.00"

[[record]]
molecule = "Cc1cc(CN(C)C)c2ncn(Cc3ccc(F)c(Cl)c3)c2c1 [Example 145, trifluoroacetate]"
result = "4.00 to 4.52"

[[record]]
molecule = "Cc1cc2nc(NCCN3CCOCC3)n(Cc3ccc(F)cc3)c2cc1C [Example 29, trifluoroacetate]"
result = "4.00 to 4.52"

[[record]]
molecule = "NCC1CN(c2nc3ccc(Cl)cc3n2Cc2ccc(F)c(Cl)c2)C1 [Example 76, trifluoroacetate]"
result = "> 6.00"

[[record]]
molecule = "Cc1cnc2nc(N3CCNCC3)n(Cc3ccc(F)c(C)c3)c2c1 [Example 244]"
result = "4.52 to 5.30"


# batch: return pEC50 for each of the 5 molecules below
1. CCNCc1c(C)c(C)cc2c1nc(N1CCNCC1)n2Cc1cc(C)c(F)c(C)c1 [Example 131, trifluoroacetate]
2. NCCNc1nc2ccc(C(F)(F)F)cc2n1Cc1ccc(F)c(Cl)c1 [Example 72, trifluoroacetate]
3. Fc1ccc(Cn2c(N3CCNCC3)nc3c(-c4ccccc4Cl)cccc32)cc1Cl [Example 84, trifluoroacetate]
4. Cc1cc2c(nc(N3CCNCC3)n2Cc2ccc(F)c(Cl)c2)c(CCN)c1C [Example 101, trifluoroacetate]
5. CCC[C@H](N)c1cccc2c1nc(N1CCNCC1)n2Cc1ccc(F)c(Cl)c1 [Example 165, trifluoroacetate]

Reply:
5.30 to 6.00
5.30 to 6.00
5.30 to 6.00
5.30 to 6.00
5.30 to 6.00

# batch: return pEC50 for each of the 2 molecules below
1. Cc1cc(Cn2c(N3CCNCC3)nc3c(-c4ccccc4C#Cc4ccccc4Cl)cc(Cl)cc32)cc(C)c1F [Example 183, trifluoroacetate]
2. Cc1cc(Cn2c(N3CCNCC3)nc3c(OC4CCNC4)cccc32)ccc1F (centres unmarked) [Example 206]

Reply:
1: 5.30 to 6.00; 2: > 6.00
